Target: I-E^d (mouse MHC class II) (mouse) (UniProt P01904)
Experiment: AlphaScreen or HTRF; direct LOCI: α and biotinylated β chains refolded with peptide titration, 48 h at 18°C; streptavidin donor beads and anti-MHC-II antibody acceptor beads; half saturation (EC50) fitted to Y = Bmax*X/(KD+X) and taken as approximate KD; pH as optimised for each MHC (DR2a at pH 6)
Would you kindly list pKd for each of these binders?
Give bare numbers, as −log10 of the molar value.

[[record]]
binder = "YLFFYRKSV [TERT572Y peptide …]"
result_value = 6.49


Turning now to a further binder:
What does the record list as pKd for IQMLKNGKKIPKVEMS [Murine β2m peptide …] ?
6.93
